Heads up, these compounds all have pEC50 values measured for KV7.2/KV7.3 channel (Homo sapiens, UniProt O43525+O43526).
Remember, pEC50 is on a log scale: it is -log10 of the molar concentration.

Req: State its pEC50 for this compound: Nc1nc(SCc2ccc(F)cc2)ccc1NC(=O)c1ccc(F)c(F)c1
Resp: 6.59

Req: State its pEC50 for this compound: CCOC(=O)Nc1ccc(NCc2ccc(F)cc2)nc1N [Compound 1, Flupirtine, reference compound]
Resp: 6.04

Req: State its pEC50 for this compound: CCOC(=O)Nc1ccc(SCc2ccc(-c3ccccc3)cc2)nc1N
Resp: 6.60

Req: State its pEC50 for this compound: CNc1nc(SCc2ccccc2)ccc1NC(=O)Cc1cc(F)cc(F)c1
Resp: 7.82

Req: State its pEC50 for this compound: CCOC(=O)Nc1ccc(SCc2ccc(F)cc2)nc1C
Resp: 6.57

# credit: paper PMC6331712
